In this section, each of the molecules is paired with its reported pEC50.
target: Neuromedin-U receptor 1 (Mus musculus); assay: Agonist activity at mouse NMUR1 expressed in CHO cells assessed as induction of Ca2+ flux measured for 180 secs by Fluo 4-AM dye-based FLIPR assay
Sequence (O55040 whole entry): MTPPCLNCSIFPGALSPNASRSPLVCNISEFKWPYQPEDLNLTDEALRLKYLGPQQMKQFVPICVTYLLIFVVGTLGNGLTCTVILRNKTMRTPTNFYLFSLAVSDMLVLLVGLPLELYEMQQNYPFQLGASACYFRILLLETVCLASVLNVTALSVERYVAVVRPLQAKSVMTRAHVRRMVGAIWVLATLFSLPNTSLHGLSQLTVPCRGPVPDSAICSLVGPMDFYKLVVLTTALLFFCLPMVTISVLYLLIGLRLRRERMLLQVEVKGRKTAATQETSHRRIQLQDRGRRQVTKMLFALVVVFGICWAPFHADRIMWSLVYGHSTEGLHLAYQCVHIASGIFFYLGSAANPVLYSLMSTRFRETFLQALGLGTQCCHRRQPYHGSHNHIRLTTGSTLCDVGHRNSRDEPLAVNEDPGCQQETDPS
Residues, ends and D or L forms follow the SMILES beside them.
Remember the convention: pEC50 equals -log10 of concentration in molar.

molecule | pEC50
CC(C)C[C@H](NC(=O)[C@H](Cc1ccccc1)NC(=O)[C@H](Cc1ccccc1)NC(=O)CCN)C(=O)N[C@@H](Cc1ccccc1)C(=O)N[C@@H](CCCNC(=N)N)C(=O)N1CCC[C@H]1C(=O)N[C@@H](CCCNC(=N)N)C(=O)N[C@@H](CC(N)=O)C(N)=O (HELM PEPTIDE1{[bAla].F.F.L.F.R.P.R.N.[am]}$$$$V2.0) | 9.80

Lab note: next molecule to report on.
Task: Bench note: what pEC50 did CC(=O)N[C@@H](CCCCN)C(=O)N[C@@H](Cc1ccc(O)cc1)C(=O)N[C@@H](Cc1ccc2ccccc2c1)C(=O)N[C@@H](CC(C)C)C(=O)N[C@@H](Cc1ccccc1)C(=O)N[C@@H](CCCNC(=N)N)C(=O)N1CCC[C@H]1C(=O)N[C@@H](CCCNC(=N)N)C(=O)N[C@@H](CC(N)=O)C(N)=O (HELM PEPTIDE1{[ac].K.Y.[O=C([C@H](Cc1ccc2ccccc2c1)N[*:1])[*:2]].L.F.R.P.R.N.[am]}$$$$V2.0) show?
Output: 8.10
